- testedTarget: human orexin 2 receptor (Homo sapiens)
- Sequence (O43614 1-444): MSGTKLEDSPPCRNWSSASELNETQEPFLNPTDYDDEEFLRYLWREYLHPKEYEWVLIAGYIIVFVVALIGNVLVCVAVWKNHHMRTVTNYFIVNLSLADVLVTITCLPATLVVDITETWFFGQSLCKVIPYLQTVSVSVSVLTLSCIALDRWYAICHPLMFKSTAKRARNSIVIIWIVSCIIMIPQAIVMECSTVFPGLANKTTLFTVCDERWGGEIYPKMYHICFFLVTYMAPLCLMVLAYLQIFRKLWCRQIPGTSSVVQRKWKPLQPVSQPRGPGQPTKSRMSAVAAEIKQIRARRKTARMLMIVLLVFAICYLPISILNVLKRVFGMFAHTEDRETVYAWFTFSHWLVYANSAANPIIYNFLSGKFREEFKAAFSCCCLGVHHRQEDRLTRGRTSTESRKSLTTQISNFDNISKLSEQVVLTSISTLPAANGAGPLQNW
metric: pKi
Lab note: report pKi as minus log10 of the concentration in molar units, number only.

Ask: Record lookup: for human orexin 2 receptor (Homo sapiens), what pKi belongs to CCN(Cc1ccccc1)C(=O)CN(c1ccc(OC)nc1)S(=O)(=O)c1ncccc1C ?
Reply: 8.66

Ask: Record lookup: for human orexin 2 receptor (Homo sapiens), what pKi belongs to CCN(Cc1ccccc1)C(=O)CN(c1ccccc1OC)S(=O)(=O)c1ncccc1C ?
Reply: 8.44
